Each recorded value in this set is attributed to patent US20230263822A1.

assay_info: Hematology assays in cynomolgus monkeys (Example 45)
Type: in vivo
particulars: day 36
Protocol: Groups, each consisting of two male and three female monkeys, were injected subcutaneously with ISIS 416838, ISIS 416850, ISIS 416858, ISIS 416864, or ISIS 417002 in escalating doses. […] Body weights were measured weekly. […]
Would you mind telling me the reported basophils of each entry?

Requested read-out: basophils. Entry: ISIS 416850: MOE gapmer, nucleobases 1275 to 1318 of SEQ ID NO: 1 (Table 8) (antisense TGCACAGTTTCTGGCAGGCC; MOE gapmer, wing and gap sizes not given here)
0.3%

And what about the substance ISIS 417002: MOE gapmer, nucleobases 1275 to 1318 of SEQ ID NO: 1 (Table 8) (antisense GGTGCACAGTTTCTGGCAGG; MOE gapmer, wing and gap sizes not given here) ?
0.2%

Follow-up entry: ISIS 416864: MOE gapmer, nucleobases 1275 to 1318 of SEQ ID NO: 1 (Table 8) (antisense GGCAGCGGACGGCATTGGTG; MOE gapmer, wing and gap sizes not given here)
0.3%

* * *

System: human Factor 11 mRNA
assay_info: Dose-dependent inhibition of human Factor 11 in HepG2 cells, lipofectin 9.375-75 nM (Example 4)
Type: cell-based
Strand notation (5' to 3'): a small letter for the sugar, then the base; units joined by * are phosphorothioate-linked, units joined directly phosphodiester-linked; [ ] holds rarer units or linkages, { } end groups; capitals alone tell only the bases. e = 2'-O-(2-methoxyethyl) (MOE); [5mC] = 5-methylcytosine; d = 2'-deoxy (DNA)
Would you kindly list IC50 for each of these substances?
All answers are understood in nM, so give the number only.

Look up IC50 for this substance: 416825 (antisense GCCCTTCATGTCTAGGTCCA; 5-10-5 gapmer, further chemistry not given here) [compound 416825]
20

What about 416856 (antisense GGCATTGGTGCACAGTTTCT; 5-10-5 gapmer, further chemistry not given here) [compound 416856] ?
27

Cool, now 416838 (antisense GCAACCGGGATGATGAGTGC; 5-10-5 gapmer, further chemistry not given here) [compound 416838]
19

Same again, this time with 417002 (antisense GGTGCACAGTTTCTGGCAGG; 2-13-5 gapmer chemistry, further chemistry not given here) [compound 417002]
19

416923 (antisense eT*eG*e[5mC]*dA*d[5mC]*dA*dG*dT*dT*dT*d[5mC]*dT*dG*dG*d[5mC]*dA*dG*eG*e[5mC]*e[5mC]) [compound 416923] ?
23

Now consider 416850 (antisense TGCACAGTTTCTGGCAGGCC; 5-10-5 gapmer, further chemistry not given here) [compound 416850] .
29

# iterate: 416924 (antisense eG*eT*eG*d[5mC]*dA*d[5mC]*dA*dG*dT*dT*dT*d[5mC]*dT*dG*dG*d[5mC]*dA*eG*eG*e[5mC]) [compound 416924]
36

What do we get for 416984 (antisense e[5mC]*eA*dA*d[5mC]*d[5mC]*dG*dG*dG*dA*dT*dG*dA*dT*dG*dA*eG*eT*eG*e[5mC]*eA) [compound 416984] ?
22

Another: 412206 (antisense e[5mC]*e[5mC]*eG*eT*eG*d[5mC]*dA*dT*d[5mC]*dT*dT*dT*d[5mC]*dT*dT*eG*eG*e[5mC]*eA*eT) [compound 412206]
21

// query: 416895 (antisense eT*eA*eT*dG*d[5mC]*d[5mC]*d[5mC]*dT*dT*d[5mC]*dA*dT*dG*dT*d[5mC]*dT*dA*eG*eG*eT) [compound 416895]
15

Here is the next substance: 416999 (antisense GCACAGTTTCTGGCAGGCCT; 2-13-5 gapmer chemistry, further chemistry not given here) [compound 416999]
30

Entry 416945 (antisense eA*eA*dT*dG*dT*d[5mC]*dT*dT*dT*dG*dT*dT*dG*d[5mC]*dA*eA*eG*e[5mC]*eG*e[5mC]) [compound 416945] please
24

Also 416989 (antisense eG*eA*dG*dA*dT*dT*d[5mC]*dT*dT*dT*dG*dG*dG*d[5mC]*d[5mC]*eA*eT*eT*e[5mC]*e[5mC]) [compound 416989] ?
26

Can you check 416931 (antisense eG*eG*e[5mC]*dA*dT*dT*dG*dG*dT*dG*d[5mC]*dA*d[5mC]*dA*dG*dT*dT*eT*e[5mC]*eT) [compound 416931] next?
22

Can you check 416941 (antisense eG*eG*e[5mC]*dA*dG*d[5mC]*dG*dG*dA*d[5mC]*dG*dG*d[5mC]*dA*dT*dT*dG*eG*eT*eG) [compound 416941] next?
19

Input 416892 (antisense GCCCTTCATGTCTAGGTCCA; 3-14-3 chimeric gapmer, further chemistry not given here) [compound 416892]
23

Do the same for 416908 (antisense eG*e[5mC]*eA*dA*d[5mC]*d[5mC]*dG*dG*dG*dA*dT*dG*dA*dT*dG*dA*dG*eT*eG*e[5mC]) [compound 416908] please
16

// next record 416969 (antisense eG*e[5mC]*d[5mC]*d[5mC]*dT*dT*d[5mC]*dA*dT*dG*dT*d[5mC]*dT*dA*dG*eG*eT*e[5mC]*e[5mC]*eA) [compound 416969]
28

Again, but for 413474 (antisense eA*eG*e[5mC]*eA*eA*d[5mC]*d[5mC]*dG*dG*dG*dA*dT*dG*dA*dT*eG*eA*eG*eT*eG) [compound 413474]
28

Entry to check: 416925 (antisense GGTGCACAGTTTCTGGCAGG; 3-14-3 gapmer chemistry, further chemistry not given here) [compound 416925]
30

Next up: 416972 (antisense eT*eA*dT*dG*d[5mC]*d[5mC]*d[5mC]*dT*dT*d[5mC]*dA*dT*dG*dT*d[5mC]*eT*eA*eG*eG*eT) [compound 416972]
26

Similarly, 416858 (antisense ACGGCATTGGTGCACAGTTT; 5-10-5 gapmer, further chemistry not given here) [compound 416858] ?
33
